# MEASUREMENT_NOTES: physchem
# APPLIED_CONDITIONS: pH 6.5, aqueous buffer
READOUT: solubility (µg/mL)
Return type: number; implicit unit µg/mL.

Data request, read-out solubility, for Nc1nnc(-c2cccc(Cl)c2Cl)c(N)n1
161

* * *

# MEASUREMENT_NOTES: Solubilities of weakly basic drugs in organic acid buffers
# APPLIED_CONDITIONS: pH 3.49, aqueous buffer, solubility, buffer containing only 0.05 mg/mL of fumaric acid; unchanged up to 5 mg/mL
READOUT: solubility

// lookup solubility for Cc1nccn1CC1CCc2c(c3ccccc3n2C)C1=O.Cl.O.O (racemic) [Ondansetron Hydrochloride]
~26 mg/mL
